# Species on record: Rattus norvegicus
# assay-details: DrugMatrix - Regimen: Daily Repeat
# Format: toxicity, organism-based, Sprague-Dawley
# Parameters: regimen Daily Repeat, gender Male, age 6-8 weeks
# test-settings: in vivo, po, 0 mg/kg, 72 h, tissue Plasma, route oral GAVAGE, dose level Control, time 3 day, vehicle 100 % SALINE
measurement-name: CHOLESTEROL (mg/dL)
Number in mg/dL, nothing else.

Q: Given `CCCc1nn(C)c2c(=O)[nH]c(-c3cc(S(=O)(=O)N4CCN(C)CC4)ccc3OCC)nc12` , respond with its CHOLESTEROL.
Result: 76.5

Q: Specify CHOLESTEROL for Cc1cc(CC(=O)O)n(C)c1C(=O)c1ccc(Cl)cc1 [ZOMEPIRAC] and stop.
Result: 69

Q: Fill in CHOLESTEROL for record `Oc1ccccc1O`
Result: 69

Q: Answer with the recorded CHOLESTEROL for the compound listed here: `CC(=O)OCC(CCn1cnc2cnc(N)nc21)COC(C)=O`
Result: 76.5

###

# Species on record: Rattus norvegicus
# assay-details: DrugMatrix - Regimen: Daily Repeat
# Assay type: toxicity, organism-based, Sprague-Dawley
# Set-up: regimen Daily Repeat, gender Male, age 6-8 weeks
# test-settings: in vivo, po, 0 mg/kg, 72 h, tissue Blood, route oral GAVAGE, dose level Control, time 3 day, vehicle 100 % WATER
Label Met when PLATELET COUNT is strictly below 1000 x10E3/uL; at or above that, label Not met.

Q: Dear reviewer, please state whether `Nc1ccc(S(=O)(=O)Nc2ncccn2)cc1` has PLATELET COUNT strictly beneath 1000 x10E3/uL.
Result: Met

Q: Check if PLATELET COUNT falls below 1000 x10E3/uL for `OCCO` .
Result: Not met

Q: PLATELET COUNT under 1000 x10E3/uL? Item: `CCCc1nn(C)c2c(=O)[nH]c(-c3cc(S(=O)(=O)N4CCN(C)CC4)ccc3OCC)nc12`
Result: Not met

Q: Hello, I'm reviewing records and need to know if PLATELET COUNT of `CC[C@H]1OC(=O)[C@H](C)[C@@H](O[C@H]2C[C@@](C)(OC)[C@@H](O)[C@H](C)O2)[C@H](C)[C@@H](O[C@@H]2O[C@H](C)C[C@H](N(C)C)[C@H]2O)[C@](C)(OC)C[C@@H](C)C(=O)[C@H](C)[C@@H](O)[C@]1(C)O` is below 1000 x10E3/uL. Could you check?
Result: Not met

Q: I wonder whether `CCCCCCCCCCCCCCCC[n+]1ccccc1.[Br-]` has PLATELET COUNT below 1000 x10E3/uL. Can you tell?
Result: Not met

Q: Below 1000 x10E3/uL on PLATELET COUNT? Entry `O=C(O)c1cc(=O)c2c(OCC(O)COc3cccc4oc(C(=O)O)cc(=O)c34)cccc2o1`
Result: Not met

###

# Species: Rattus norvegicus
# assay-details: DrugMatrix - Regimen: Daily Repeat
# Assay type: toxicity, organism-based, Sprague-Dawley
# Set-up: regimen Daily Repeat, gender Male, age 6-8 weeks
# test-settings: in vivo, po, 0 mg/kg, 72 h, tissue Plasma, route oral GAVAGE, dose level Control, time 3 day, vehicle .5 % CMC
So basically: CARBON DIOXIDE at 30 mmol/L or higher? That is true (1). Lower than 30 mmol/L? That is false (0).

Q: Please tell me: is the molecule `CN1C(=O)CN=C(c2ccccc2)c2cc(Cl)ccc21` at or over 30 mmol/L in terms of CARBON DIOXIDE?
Result: true (1)

Q: Is reported CARBON DIOXIDE greater than or equal to 30 mmol/L here: `C[C@@H](O)[C@H]1C(=O)N2C(C(=O)O)=C(S[C@@H]3CN[C@H](C(=O)N(C)C)C3)[C@H](C)[C@H]12`
Result: false (0)

Q: Check this molecule for CARBON DIOXIDE at or above 30 mmol/L: CC(C(=O)O)c1ccc(-c2ccccc2)c(F)c1 (configuration not stated)
Result: false (0)

Q: Hi team, for COc1ccccc1OCC(O)COC(N)=O (configuration not stated) , is the recorded CARBON DIOXIDE at or above 30 mmol/L?
Result: false (0)

Every entry's value here was drawn from ChEMBL document CHEMBL3885881.
